Tested on: 292921-168-R-J2-PDC complex spheroid growth
Experiment Notes: Anticancer human tumor 292921-168-R-J2-PDC patient-derived pancreatic carcinoma cell line growth inhibition [AhR]
Condition: second compound 1 µM; first compound 0.00316 µM; hits give low values
Label key: Yes means viability, T/C under 80%; No means viability, T/C of 80% or more.

Ask | Strictly below 80%: is that where viability, T/C of Cn1ncnc1C1c2n[nH]c(=O)c3cc(F)cc(c23)NC1c1ccc(F)cc1 (stereo unspecified) + CC(CO)NC(=O)c1cc(-c2ccc(Cl)cc2)nn(-c2cnn(C)c2)c1=O sits?
Reply | No

Ask | Strictly below 80%: is that where viability, T/C of Cn1ncnc1C1c2n[nH]c(=O)c3cc(F)cc(c23)NC1c1ccc(F)cc1 (stereo unspecified) + Cc1cncc(-c2nc(NCCc3c[nH]c4ccccc34)c3ncn(C(C)C)c3n2)c1 sits?
Reply | No

Ask | Strictly below 80%: is that where viability, T/C of CC1COCCN1c1cc(-c2ccnn2C)c2ccnc(-c3ccn[nH]3)c2n1 (stereo unspecified) + Cc1ccccc1N=Nc1ccc(NC(=O)c2ccnn2C)c(C)c1 sits?
Reply | No

Ask | Strictly below 80%: is that where viability, T/C of CC[C@@]1(O)C(=O)OCc2c1cc1n(c2=O)Cc2cc3c(CN(C)C)c(O)ccc3nc2-1 + Cc1ccccc1N=Nc1ccc(NC(=O)c2ccnn2C)c(C)c1 sits?
Reply | Yes

Ask | Strictly below 80%: is that where viability, T/C of CC1COCCN1c1cc(-c2ccnn2C)c2ccnc(-c3ccn[nH]3)c2n1 (stereo unspecified) + CC(CO)NC(=O)c1cc(-c2ccc(Cl)cc2)nn(-c2cnn(C)c2)c1=O sits?
Reply | No

Ask | Strictly below 80%: is that where viability, T/C of CC1COCCN1c1cc(-c2ccnn2C)c2ccnc(-c3ccn[nH]3)c2n1 (stereo unspecified) + Cc1cncc(-c2nc(NCCc3c[nH]c4ccccc34)c3ncn(C(C)C)c3n2)c1 sits?
Reply | Yes

----------
Tested on: 292921-168-R-J2-PDC complex spheroid growth
Experiment Notes: Anticancer human tumor 292921-168-R-J2-PDC cell line growth inhibition [AhR];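 also: spheroids exposed to compounds for seven days after three days of growth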
Condition: second compound 0.1 µM; first compound 3.16 µM; hits give low values
Value Type: viability, T/C (%)
The figure you give is taken to be in %; do not add the unit.

Ask | Can you share its viability, T/C? I mean this compound: COc1ccc([C@@H](O)c2cc(-c3ncnc4cc(N5CCOCC5)ccc34)c(F)cc2Cl)nn1 + CC(CO)NC(=O)c1cc(-c2ccc(Cl)cc2)nn(-c2cnn(C)c2)c1=O
Reply | 41.9

Ask | Can you share its viability, T/C? I mean this compound: CC(C)c1c(-c2ccccc2)nc2c(C#N)c[nH]n2c1=O + Cc1cncc(-c2nc(NCCc3c[nH]c4ccccc34)c3ncn(C(C)C)c3n2)c1
Reply | 97.4

Ask | Can you share its viability, T/C? I mean this compound: CC1(C)CCC(CN2CCN(c3ccc(C(=O)NS(=O)(=O)c4ccc(NCC5CCOCC5)c([N+](=O)[O-])c4)c(Oc4cnc5[nH]ccc5c4)c3)CC2)=C(c2ccc(Cl)cc2)C1 + CC(CO)NC(=O)c1cc(-c2ccc(Cl)cc2)nn(-c2cnn(C)c2)c1=O
Reply | 91.1

----------
Test system: 292921-168-R-J2-PDC complex spheroid growth
Experiment Notes: Anticancer human tumor 292921-168-R-J2-PDC cell line growth inhibition [AhR];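 also: spheroids exposed to compounds for seven days after three days of growth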
Condition: second compound 0.316 µM; first compound 0.001 µM; hits give low values
I'd appreciate it if you could supply viability, T/C values for the items below.

Ask | Can you share its viability, T/C? I mean this compound: CC[C@@]1(O)C(=O)OCc2c1cc1n(c2=O)Cc2cc3c(CN(C)C)c(O)ccc3nc2-1 + Cc1ccccc1N=Nc1ccc(NC(=O)c2ccnn2C)c(C)c1
Reply | 92.5%

Ask | Can you share its viability, T/C? I mean this compound: Cn1ncnc1C1c2n[nH]c(=O)c3cc(F)cc(c23)NC1c1ccc(F)cc1 (stereo unspecified) + Cc1cncc(-c2nc(NCCc3c[nH]c4ccccc34)c3ncn(C(C)C)c3n2)c1
Reply | 102%

Ask | Can you share its viability, T/C? I mean this compound: Cn1ncnc1C1c2n[nH]c(=O)c3cc(F)cc(c23)NC1c1ccc(F)cc1 (stereo unspecified) + CC(CO)NC(=O)c1cc(-c2ccc(Cl)cc2)nn(-c2cnn(C)c2)c1=O
Reply | 97.5%

Ask | Can you share its viability, T/C? I mean this compound: Cn1ncnc1C1c2n[nH]c(=O)c3cc(F)cc(c23)NC1c1ccc(F)cc1 (stereo unspecified) + Cc1ccccc1N=Nc1ccc(NC(=O)c2ccnn2C)c(C)c1
Reply | 76.6%

Ask | Can you share its viability, T/C? I mean this compound: CC[C@@]1(O)C(=O)OCc2c1cc1n(c2=O)Cc2cc3c(CN(C)C)c(O)ccc3nc2-1 + Cc1cncc(-c2nc(NCCc3c[nH]c4ccccc34)c3ncn(C(C)C)c3n2)c1
Reply | 92.8%

Ask | Can you share its viability, T/C? I mean this compound: CC[C@@]1(O)C(=O)OCc2c1cc1n(c2=O)Cc2cc3c(CN(C)C)c(O)ccc3nc2-1 + CC(CO)NC(=O)c1cc(-c2ccc(Cl)cc2)nn(-c2cnn(C)c2)c1=O
Reply | 103%
